Source listed as patent US6565883B2.

ASSAY PROCEDURE: Rivastigmine's biopharmaceutical properties in humans
Assay type: in vivo
CONDITION LABEL: human, plasma
REPORTED ENDPOINT: half-life (h)
Report only the number, with the unit h understood.

Entry CCN(C)C(=O)Oc1cccc([C@H](C)N(C)C)c1 — recorded half-life = 1
